Listing of recorded pIC50 by entry.
# TARGET_ENTITY: ALK2 (aa 147-end) (Homo sapiens (Human))
# Sequence (Q04771 147-509): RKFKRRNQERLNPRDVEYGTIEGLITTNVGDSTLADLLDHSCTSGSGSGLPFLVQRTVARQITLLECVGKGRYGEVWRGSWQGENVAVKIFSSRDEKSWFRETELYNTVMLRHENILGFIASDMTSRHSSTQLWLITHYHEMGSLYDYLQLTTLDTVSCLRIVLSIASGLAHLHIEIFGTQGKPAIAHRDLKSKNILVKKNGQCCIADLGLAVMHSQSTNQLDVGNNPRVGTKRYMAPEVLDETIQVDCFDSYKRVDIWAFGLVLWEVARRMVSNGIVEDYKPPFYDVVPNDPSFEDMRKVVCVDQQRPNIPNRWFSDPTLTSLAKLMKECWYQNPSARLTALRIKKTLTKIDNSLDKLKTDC
# ASSAY: ALK2 HTRF Assay
# Type: biochemical
# MEASUREMENT_PARAMETERS: read-out: ALK2 1 mM IC50; 1 mM ATP
pIC50: −log10 of the molar value.

Request: Record request: pIC50 value, item CNC(=O)c1ccc(-c2n[nH]c3cnc(N4[C@H](C)CN(C(=O)OC)C[C@@H]4C)nc23)cc1 [Example 26]
Result: < 5.70

---

# TARGET_ENTITY: FGFR2 (P) (Homo sapiens (Human))
# Sequence (P21802 22-821): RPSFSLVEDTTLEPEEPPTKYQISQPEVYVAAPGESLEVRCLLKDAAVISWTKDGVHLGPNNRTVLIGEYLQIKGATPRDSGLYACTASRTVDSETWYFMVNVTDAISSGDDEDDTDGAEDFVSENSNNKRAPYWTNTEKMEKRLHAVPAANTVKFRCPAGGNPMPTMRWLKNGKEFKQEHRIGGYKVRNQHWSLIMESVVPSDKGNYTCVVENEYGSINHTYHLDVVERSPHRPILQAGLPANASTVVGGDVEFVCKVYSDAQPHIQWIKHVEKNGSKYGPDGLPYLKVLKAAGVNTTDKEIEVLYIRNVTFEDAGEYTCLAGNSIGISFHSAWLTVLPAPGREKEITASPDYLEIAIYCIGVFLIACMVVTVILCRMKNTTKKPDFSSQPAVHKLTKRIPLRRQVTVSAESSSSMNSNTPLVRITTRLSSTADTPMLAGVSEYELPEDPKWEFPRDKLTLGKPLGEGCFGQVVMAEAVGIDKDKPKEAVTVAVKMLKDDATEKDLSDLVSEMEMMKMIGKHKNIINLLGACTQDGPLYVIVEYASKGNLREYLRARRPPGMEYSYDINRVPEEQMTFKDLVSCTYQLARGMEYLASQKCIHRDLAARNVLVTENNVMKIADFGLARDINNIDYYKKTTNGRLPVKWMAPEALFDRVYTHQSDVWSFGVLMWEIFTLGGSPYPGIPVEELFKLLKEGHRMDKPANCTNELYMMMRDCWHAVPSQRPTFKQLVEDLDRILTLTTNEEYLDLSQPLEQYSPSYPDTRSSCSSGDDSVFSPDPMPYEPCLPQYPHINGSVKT
# ASSAY: FGFR Enzymatic Assay, FGFR2 phosphorylated
# MEASUREMENT_PARAMETERS: FGFR2 (P) IC50 (nM), phosphorylated enzyme, ATP near or below Km
Listing of recorded IC50 by entry.

CC(C)N1CCN(c2ncc3[nH]nc(-c4cnn(C)c4)c3n2)C(C)C1=O (stereo not shown) [Example 47] = 100 to 500 nM
Cn1cc(-c2n[nH]c3cnc(N4CCc5ncsc5C4)nc23)cn1 [Example 42] = 100 to 500 nM
Cc1cnc2n1CCN(c1ncc3[nH]nc(-c4ccc(N5CCN[C@H](C)C5)nc4)c3n1)C2 [Example 19] = 100 to 500 nM
Cn1cc(-c2n[nH]c3cnc(N4CCN(C5CC5)C(=O)C4)nc23)cn1 [Example 37] = 500 to 2000 nM
Cn1cc(-c2n[nH]c3cnc(N4CCc5ncccc5C4)nc23)cn1 [Example 40] = 100 to 500 nM

Request: Record request: IC50 value, item COCCN1CCN(c2ncc3[nH]nc(-c4cnn(C)c4)c3n2)C(C)C1=O (stereo not shown) [Example 48]
Result: 500 to 2000 nM

Request: Record request: IC50 value, item Cn1cc(-c2n[nH]c3cnc(N4C5CCC4C(=O)N(CCF)C5)nc23)cn1 (stereo not shown) [Example 51]
Result: 100 to 500 nM

Request: Record request: IC50 value, item CN1CC2CCC(C1=O)N2c1ncc2[nH]nc(-c3cnn(CC(F)(F)F)c3)c2n1 (stereo not shown) [Example 67]
Result: 100 to 500 nM

---

# TARGET_ENTITY: UniProt:Q04771
# ASSAY: ALK2 Cellular Assay (phospho SMAD1 HTRF, BMP-7 stimulated HeLa cells)
# Assay type: cell-based
# MEASUREMENT_PARAMETERS: HeLa cells, 200 ng/ml BMP-7, Phospho SMAD1 (S463/S465) HTRF; read-out: ALK2 Cellular Assay PSMAD
Listing of recorded IC50 by entry.

COC(=O)N1C[C@@H](C)N(c2ncc3[nH]nc(-c4ccc(N5CCN(C)CC5)cc4)c3n2)[C@@H](C)C1 = < 100 nM
COC(=O)N1C[C@@H](C)N(c2ncc3[nH]nc(-c4ccc(N5CCN6C[C@@H](O)C[C@@H]6C5)cc4)c3n2)[C@@H](C)C1 = 100 to 500 nM

Attention now turns to another entry.
Request: Record request: IC50 value, item `COC(=O)N1C[C@@H](C)N(c2ncc3[nH]nc(-c4ccc(N5CCN(C6CCOCC6)CC5)cc4)c3n2)[C@@H](C)C1`
Result: 100 to 500 nM

---

# TARGET_ENTITY: ALK2 (Homo sapiens (Human))
# Sequence (Q04771 21-509): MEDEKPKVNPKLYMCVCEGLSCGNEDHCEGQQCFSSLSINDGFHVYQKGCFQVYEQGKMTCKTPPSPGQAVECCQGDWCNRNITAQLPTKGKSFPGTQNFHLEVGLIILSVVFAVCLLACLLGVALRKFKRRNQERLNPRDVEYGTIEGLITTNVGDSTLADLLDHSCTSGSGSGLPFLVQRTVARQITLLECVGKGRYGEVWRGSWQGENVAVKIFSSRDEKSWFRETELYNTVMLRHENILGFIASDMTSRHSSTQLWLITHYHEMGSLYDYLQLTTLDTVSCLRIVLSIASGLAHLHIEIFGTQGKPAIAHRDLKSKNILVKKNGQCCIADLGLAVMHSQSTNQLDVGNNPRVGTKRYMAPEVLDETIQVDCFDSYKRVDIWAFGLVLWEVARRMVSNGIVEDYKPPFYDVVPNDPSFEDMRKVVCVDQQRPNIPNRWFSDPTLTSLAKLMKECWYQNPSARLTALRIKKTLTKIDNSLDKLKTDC
# ASSAY: ALK2 Cellular Assay (phospho SMAD1 HTRF, BMP-7 stimulated HeLa cells)
# Format: cell-based
# MEASUREMENT_PARAMETERS: HeLa cells, 200 ng/ml BMP-7, Phospho SMAD1 (S463/S465) HTRF; read-out: ALK2 Cellular Assay PSMAD
pIC50: −log10 of the molar value.
TEST_READOUT: pIC50

COC(=O)N1C[C@@H](C)N(c2ncc3[nH]nc(-c4ccc(N5CCN(C(C)CO)CC5)cc4)c3n2)[C@@H](C)C1 (some centres unmarked) = > 7.00
COC(=O)N1C[C@@H](C)N(c2ncc3[nH]nc(-c4ccc(N5CCN(C(C)(C)C(=O)O)CC5)cc4)c3n2)[C@@H](C)C1 = > 7.00
C[C@@H]1CN(c2ccc(-c3n[nH]c4cnc(N5[C@@H]6CCC[C@H]5[C@@H](O)C6)nc34)cn2)CCN1 = 6.30 to 7.00

Request: Record request: pIC50 value, item `CCOC(=O)N1C[C@@H](C)N(c2ncc3[nH]nc(-c4ccc(N5CCN[C@H](C)C5)nc4)c3n2)[C@@H](C)C1`
Result: 6.30 to 7.00

Request: Record request: pIC50 value, item `CC(C)NC(=O)N1C[C@@H](C)N(c2ncc3[nH]nc(-c4ccc(N5CCN[C@H](C)C5)nc4)c3n2)[C@@H](C)C1`
Result: 6.30 to 7.00

Request: Record request: pIC50 value, item `C[C@@H]1CCC[C@H](C)N1c1ncc2[nH]nc(-c3ccc(N4CCN(C)CC4)cc3)c2n1`
Result: 5.70 to 6.30

---

Listing of recorded pIC50 by entry.
# TARGET_ENTITY: FGFR2 (P) (Homo sapiens (Human))
# ASSAY: FGFR Enzymatic Assay, FGFR2 phosphorylated
# MEASUREMENT_PARAMETERS: read-out: FGFR2 (P) IC50; phosphorylated enzyme, ATP near or below Km
pIC50: −log10 of the molar value.

Sample answers from the record:
C[C@@H]1CN(c2ccc(-c3n[nH]c4cnc(N5[C@@H]6CC[C@H]5CN(c5ccc(C#N)cc5)C6)nc34)cn2)CCN1 [Example 15] = < 5.70
CN1CC2CCC(C1=O)N2c1ncc2[nH]nc(-c3cnn(-c4ccncc4)c3)c2n1 (stereo not shown) [Example 68] = > 7.00
CN1CC2CCC(C1=O)N2c1ncc2[nH]nc(-c3cnn(CCN4CCOCC4)c3)c2n1 (stereo not shown) [Example 58] = > 7.00

Request: Give recorded pIC50 with FGFR2 (P) (Homo sapiens (Human)) for the following compound: CC(C)C(=O)N1CCC(n2cc(-c3n[nH]c4cnc(N5C6CCC5C(=O)N(C)C6)nc34)cn2)CC1 (stereo not shown) [Example 57]
Result: > 7.00

---

Listing of recorded IC50 by entry.
# TARGET_ENTITY: ALK2 (Homo sapiens (Human))
# ASSAY: ALK2 Cellular Assay (phospho SMAD1 HTRF, BMP-7 stimulated HeLa cells)
# Assay type: cell-based
# MEASUREMENT_PARAMETERS: HeLa cells, 200 ng/ml BMP-7, Phospho SMAD1 (S463/S465) HTRF; read-out: ALK2 Cellular Assay PSMAD

COCC(=O)N1C[C@@H](C)N(c2ncc3[nH]nc(-c4ccc(N5CCN[C@H](C)C5)nc4)c3n2)[C@@H](C)C1 = 100 to 500 nM
COC(=O)N1C[C@@H](C)N(c2ncc3[nH]nc(-c4ccc(C5CCN(C)C5)cc4)c3n2)[C@@H](C)C1 (stereo partly shown) = 100 to 500 nM

Request: Record request: IC50 value, item C[C@@H]1CN(c2ccc(-c3n[nH]c4cnc(N5[C@H](C)CN(C(=O)N6CCC(F)C6)C[C@@H]5C)nc34)cn2)CCN1 (stereo partly shown)
Result: < 100 nM

Request: Record request: IC50 value, item C[C@@H]1CN(c2ccc(-c3n[nH]c4cnc(N5CC6CCC5CN6C(=O)N5CCCC5)nc34)cn2)CCN1 (stereo partly shown)
Result: 100 to 500 nM

---

Listing of recorded IC50 by entry.
# TARGET_ENTITY: UniProt P21802
# ASSAY: FGFR Enzymatic Assay, FGFR2 un-phosphorylated

Request: Record request: IC50 value, item `C[C@@H]1CN(c2ccc(-c3n[nH]c4cnc(N5[C@@H]6CC[C@H]5CN(C(=O)C5CC5)C6)nc34)cn2)CCN1`
Result: 100 to 500 nM

Request: Record request: IC50 value, item `COC(=O)N1C[C@@H](C)N(c2ncc3[nH]nc(-c4ccc(N5CCC(O)CC5)cc4)c3n2)[C@@H](C)C1`
Result: 500 to 2000 nM

Request: Record request: IC50 value, item `CNC(=O)c1ccc(-c2n[nH]c3cnc(N4[C@H](C)CN(C(=O)OC)C[C@@H]4C)nc23)cc1`
Result: 100 to 500 nM

---

Listing of recorded IC50 by entry.
# TARGET_ENTITY: ALK2 (Homo sapiens (Human))
# ASSAY: ALK2 Cellular Assay (phospho SMAD1 HTRF, BMP-7 stimulated HeLa cells)
# Type: cell-based
# MEASUREMENT_PARAMETERS: HeLa cells, 200 ng/ml BMP-7, Phospho SMAD1 (S463/S465) HTRF; read-out: ALK2 Cellular Assay PSMAD

Sample answers from the record:
C[C@@H]1CN(c2ccc(-c3n[nH]c4cnc(N5[C@H](C)CCC[C@@H]5C)nc34)cn2)CCN1 = 100 to 500 nM
CC(C)C(=O)N1C[C@@H](C)N(c2ncc3[nH]nc(-c4ccc(N5CCN[C@H](C)C5)nc4)c3n2)[C@@H](C)C1 = 500 to 2000 nM
COC(=O)N1C[C@@H](C)N(c2ncc3[nH]nc(-c4ccc(N5CCC(O)CC5)cc4)c3n2)[C@@H](C)C1 = 500 to 2000 nM

Attention now turns to another entry.
Request: Record request: IC50 value, item COC(=O)N1C[C@@H](C)N(c2ncc3[nH]nc(-c4ccc(C5CCN(CCO)C5)cc4)c3n2)[C@@H](C)C1 (stereo partly shown)
Result: < 100 nM
